From: ChEMBL document CHEMBL4257506

Below is a list of entries, each paired with its recorded MFC value.
Test system: Trichoderma viride
Test: Fungicidal activity against Trichoderma viride IAM 5061 by microdilution method
Format: functional
Output spec: scalar in ×10⁻² mmol/ml, unitless text.

Example entries begin here.
# MFC measured on Trichoderma viride for item `CC(=O)c1c(O)c(C)c(O)c2c1OC1=CC(=O)/C(=C(/C)NCCc3nnc(-c4ccccc4O)o3)C(=O)[C@@]12C` = 1.51

Kindly note: Trichoderma viride, CC(=O)c1c(O)c(C)c(O)c2c1OC1=CC(=O)/C(=C(/C)NCc3noc(C4CCC(=O)N4)n3)C(=O)[C@@]12C (some centres not stated) , MFC value reported: 1.77

Assay Trichoderma viride, sample c1ccc(-c2ccc(C(c3ccccc3)n3ccnc3)cc2)cc1 (configuration not stated) , MFC read: 80

Summary: `CC(=O)c1c(O)c(C)c(O)c2c1OC1=CC(=O)/C(=C(/C)NCc3nc(N)n[nH]3)C(=O)[C@@]12C` , Trichoderma viride, MFC = 8.82

# value of MFC, Trichoderma viride, item `CC(=O)c1c(O)c(C)c(O)c2c1OC1=CC(=O)/C(=C(/C)NCC(=O)Nc3nccs3)C(=O)[C@@]12C` = 3.72

So the reported MFC for `CC(=O)c1c(O)c(C)c(O)c2c1OC1=CC(=O)/C(=C(/C)NCCn3c(=O)c(O)nc4ccccc43)C(=O)[C@@]12C` , on Trichoderma viride, turned out to be 1.82

Others:
Case `CC(=O)NCCN/C(C)=C1\C(=O)C=C2Oc3c(C(C)=O)c(O)c(C)c(O)c3[C@@]2(C)C1=O` , Trichoderma viride, MFC recorded as 15.05

###

System: Talaromyces funiculosus
Assay: Fungicidal activity against Penicillium funiculosum ATCC 36839 by microdilution method
Type: functional
PROPERTY_MEASURED: log10 of MFC (log10 of the value in ×10⁻² mmol/ml)
On a log10 scale: recorded MFC, unit ×10⁻² mmol/ml.

Recorded log10 of MFC (compound `CC(=O)c1c(O)c(C)c(O)c2c1OC1=CC(=O)/C(=C(/C)NCCc3nc(C)no3)C(=O)[C@@]12C` ): 0.57

Value of log10 of MFC reported for the compound `CC(=O)c1c(O)c(C)c(O)c2c1OC1=CC(=O)/C(=C(/C)NCC(=O)Nc3nccs3)C(=O)[C@@]12C` is 0.57

Noted for `COCCc1noc(CCN/C(C)=C2\C(=O)C=C3Oc4c(C(C)=O)c(O)c(C)c(O)c4[C@@]3(C)C2=O)n1` : its log10 of MFC reads 0.60

Entry `CC(=O)c1c(O)c(C)c(O)c2c1OC1=CC(=O)/C(=C(/C)NCCS(N)(=O)=O)C(=O)[C@@]12C` ; log10 of MFC = 0.85

Record CC(=O)C1=C(O)C=C2Oc3c(C(C)=O)c(O)c(C)c(O)c3C2(C)C1=O (stereo not given) . Reported log10 of MFC: 0.94

// log10 of MFC lookup, compound = `CC(=O)c1c(O)c(C)c(O)c2c1OC1=CC(=O)/C(=C(/C)NCCn3c(=O)c(O)nc4ccccc43)C(=O)[C@@]12C` , result: 0.56

Noted for `COc1ccc2nc(NC(=O)CN/C(C)=C3\C(=O)C=C4Oc5c(C(C)=O)c(O)c(C)c(O)c5[C@@]4(C)C3=O)sc2c1` : its log10 of MFC reads 1.17

For this compound ( `CC(=O)c1c(O)c(C)c(O)c2c1OC1=CC(=O)/C(=C(/C)NCCc3ccc(O)c(O)c3)C(=O)[C@@]12C` ), measured log10 of MFC is 0.62

Per the record, c1ccc(-c2ccc(C(c3ccccc3)n3ccnc3)cc2)cc1 (stereo not given) has log10 of MFC of 1.90

Recorded result, `CC(=O)c1c(O)c(C)c(O)c2c1OC1=CC(=O)/C(=C(/C)NCc3nc(N)n[nH]3)C(=O)[C@@]12C` , log10 of MFC: 0.64

Further cases:
According to the records, this compound CC(=O)c1c(O)c(C)c(O)c2c1OC1=CC(=O)/C(=C(/C)NCC(=O)NC(CO)C(=O)O)C(=O)[C@@]12C (stereo not given in full) displays log10 of MFC of 0.57

Summary for this compound, `CC(=O)NCCN/C(C)=C1\C(=O)C=C2Oc3c(C(C)=O)c(O)c(C)c(O)c3[C@@]2(C)C1=O` : log10 of MFC is 0.88

Per the records, this compound ( CC(=O)c1c(O)c(C)c(O)c2c1OC1=CC(=O)/C(=C(/C)NCc3noc(C4CCC(=O)N4)n3)C(=O)[C@@]12C (stereo not given in full) ) has log10 of MFC equal to 0.25

// field: log10 of MFC; key: `CC(=O)c1c(O)c(C)c(O)c2c1OC1=CC(=O)/C(=C(/C)NCCc3nnc(-c4ccccc4O)o3)C(=O)[C@@]12C` ; value = 0.48

# log10 of MFC of CC(=O)N1CCN(c2ccc(OCC3COC(Cn4ccnc4)(c4ccc(Cl)cc4Cl)O3)cc2)CC1 (stereo not given) = 1.98

###

// reported MFC per item
System: Trichoderma viride
Assay: Fungicidal activity against Trichoderma viride IAM 5061 by microdilution method
Format: functional
Respond numerically; units are ×10⁻² mmol/ml and should not be typed.

Answered examples (3):
Form: compound = CC(=O)C1=C(O)C=C2Oc3c(C(C)=O)c(O)c(C)c(O)c3C2(C)C1=O (stereo not drawn) ; MFC = 4.4

Data point: `COc1ccc2nc(NC(=O)CN/C(C)=C3\C(=O)C=C4Oc5c(C(C)=O)c(O)c(C)c(O)c5[C@@]4(C)C3=O)sc2c1` ; MFC = 1.77

Looking up `CC(=O)c1c(O)c(C)c(O)c2c1OC1=CC(=O)/C(=C(/C)NCCc3ccc(O)c(O)c3)C(=O)[C@@]12C` , I see its MFC listed as 2.09

---
GET /value?item= `CC(=O)c1c(O)c(C)c(O)c2c1OC1=CC(=O)/C(=C(/C)NCCS(N)(=O)=O)C(=O)[C@@]12C` &field=MFC returns 3.55

Recorded MFC (compound `CC(=O)c1c(O)c(C)c(O)c2c1OC1=CC(=O)/C(=C(/C)NCCc3nc(C)no3)C(=O)[C@@]12C` ): 1.87

What the record says about CC(=O)N1CCN(c2ccc(OCC3COC(Cn4ccnc4)(c4ccc(Cl)cc4Cl)O3)cc2)CC1 (stereo not drawn) [KETOCONAZOLE] : MFC is 570

So for `COCCc1noc(CCN/C(C)=C2\C(=O)C=C3Oc4c(C(C)=O)c(O)c(C)c(O)c4[C@@]3(C)C2=O)n1` , the logged MFC turned out to be 2.01

For reference, reported MFC for CC(=O)c1c(O)c(C)c(O)c2c1OC1=CC(=O)/C(=C(/C)NCC(=O)NC(CO)C(=O)O)C(=O)[C@@]12C (stereo partly drawn) stands at 1.84

###

Test system: Penicillium ochrochloron
Assay: Fungicidal activity against Penicillium ochrochloron ATCC 9112 by microdilution method
Type: functional
Labelling: MFC reported below 4 ×10⁻² mmol/ml becomes y; at or above becomes n.

query: Dear colleague, could you confirm whether MFC of `CC(=O)c1c(O)c(C)c(O)c2c1OC1=CC(=O)/C(=C(/C)NCCc3nc(C)no3)C(=O)[C@@]12C` falls below 4 ×10⁻² mmol/ml? Thanks.
result: y

query: For `CC(=O)c1c(O)c(C)c(O)c2c1OC1=CC(=O)/C(=C(/C)NCCc3ccc(O)c(O)c3)C(=O)[C@@]12C` , is the recorded MFC below the cut-off of 4 ×10⁻² mmol/ml?
result: n

query: Record `CC(=O)c1c(O)c(C)c(O)c2c1OC1=CC(=O)/C(=C(/C)NCCc3nnc(-c4ccccc4O)o3)C(=O)[C@@]12C` : is its MFC strictly below 4 ×10⁻² mmol/ml?
result: y

query: Answer whether the compound `CC(=O)c1c(O)c(C)c(O)c2c1OC1=CC(=O)/C(=C(/C)NCCS(N)(=O)=O)C(=O)[C@@]12C` has MFC strictly less than 4 ×10⁻² mmol/ml
result: n

query: In plain terms, does CC(=O)c1c(O)c(C)c(O)c2c1OC1=CC(=O)/C(=C(/C)NCc3noc(C4CCC(=O)N4)n3)C(=O)[C@@]12C (stereo not given in full) come in under 4 ×10⁻² mmol/ml for MFC?
result: y

query: In plain terms, does `COc1ccc2nc(NC(=O)CN/C(C)=C3\C(=O)C=C4Oc5c(C(C)=O)c(O)c(C)c(O)c5[C@@]4(C)C3=O)sc2c1` come in under 4 ×10⁻² mmol/ml for MFC?
result: n

query: Dear reviewer, please state whether `CC(=O)NCCN/C(C)=C1\C(=O)C=C2Oc3c(C(C)=O)c(O)c(C)c(O)c3[C@@]2(C)C1=O` has MFC strictly beneath 4 ×10⁻² mmol/ml.
result: n

query: Quick check: does CC(=O)c1c(O)c(C)c(O)c2c1OC1=CC(=O)/C(=C(/C)NCC(=O)NC(CO)C(=O)O)C(=O)[C@@]12C (stereo not given in full) have MFC under 4 ×10⁻² mmol/ml?
result: y

query: Criterion: MFC strictly below 4 ×10⁻² mmol/ml. Is it met by `CC(=O)c1c(O)c(C)c(O)c2c1OC1=CC(=O)/C(=C(/C)NCC(=O)Nc3nccs3)C(=O)[C@@]12C` ?
result: y

query: Lab log: compare recorded MFC with 4 ×10⁻² mmol/ml; is it strictly lower for `CC(=O)c1c(O)c(C)c(O)c2c1OC1=CC(=O)/C(=C(/C)NCCn3c(=O)c(O)nc4ccccc43)C(=O)[C@@]12C` ?
result: y

Others:
query: # strict comparison: is reported MFC < 4 ×10⁻² mmol/ml? input = `CC(=O)c1c(O)c(C)c(O)c2c1OC1=CC(=O)/C(=C(/C)NCc3nc(N)n[nH]3)C(=O)[C@@]12C`
result: n

query: Report whether reported MFC is lower than 4 ×10⁻² mmol/ml (strictly) for CC(=O)C1=C(O)C=C2Oc3c(C(C)=O)c(O)c(C)c(O)c3C2(C)C1=O (stereo not given)
result: n

query: Is it true that MFC reported for c1ccc(-c2ccc(C(c3ccccc3)n3ccnc3)cc2)cc1 (stereo not given) is less than 4 ×10⁻² mmol/ml?
result: n

query: State whether 4 ×10⁻² mmol/ml exceeds MFC recorded for CC(=O)N1CCN(c2ccc(OCC3COC(Cn4ccnc4)(c4ccc(Cl)cc4Cl)O3)cc2)CC1 (stereo not given) .
result: n
